# ASSAY_DETAILS: Inhibition of GGPTase-1 (unknown origin)
# Design: species or system Homo sapiens
pIC50: −log10 of the molar value.
Parameter: pIC50. Scope: all listed entries.

# COMPOUND, pIC50
records = [
    ("CC[C@@]1(c2cccc(Oc3cc(Cn4ccnc4)ccc3C#N)c2)CCCCN(C)C1=O", 8.24),
    ("COc1cccc(Oc2cc(Cn3ccnc3)ccc2C#N)c1OC", 4.82),
    ("CCC1(c2cccc(Oc3cc(Cc4cncn4C)ccc3C#N)c2)CCCCN(C)C1=O (racemic)", 8.00),
    ("CCC1(c2cccc(Oc3cc(Cn4ccnc4)ccc3C#N)c2)CCCCN(C)C1=O (racemic)", 8.15),
]

====

# MEASURED_ON: 72 kDa type IV collagenase (Homo sapiens)
# Sequence (P08253 whole entry): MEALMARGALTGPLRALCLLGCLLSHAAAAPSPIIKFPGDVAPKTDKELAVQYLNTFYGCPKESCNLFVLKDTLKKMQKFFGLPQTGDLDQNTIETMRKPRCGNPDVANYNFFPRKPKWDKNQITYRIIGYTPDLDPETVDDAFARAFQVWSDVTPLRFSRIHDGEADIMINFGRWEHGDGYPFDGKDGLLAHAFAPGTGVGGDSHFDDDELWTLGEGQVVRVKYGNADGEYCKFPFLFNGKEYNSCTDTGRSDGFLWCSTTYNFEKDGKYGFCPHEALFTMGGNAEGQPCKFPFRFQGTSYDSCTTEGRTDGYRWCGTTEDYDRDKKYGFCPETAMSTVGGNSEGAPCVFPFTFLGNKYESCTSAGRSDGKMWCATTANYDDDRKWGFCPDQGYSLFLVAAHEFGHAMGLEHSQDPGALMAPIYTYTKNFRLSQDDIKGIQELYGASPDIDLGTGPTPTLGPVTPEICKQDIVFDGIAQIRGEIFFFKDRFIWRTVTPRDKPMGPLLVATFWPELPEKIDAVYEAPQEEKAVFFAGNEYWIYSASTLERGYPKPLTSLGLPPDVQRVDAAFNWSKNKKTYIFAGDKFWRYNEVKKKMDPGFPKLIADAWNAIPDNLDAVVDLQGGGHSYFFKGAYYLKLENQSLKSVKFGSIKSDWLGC

# COMPOUND, ENDPOINT_UNIT, IC50
data = [
    ("O=CN(O)C(CS(=O)(=O)c1ccc(Oc2ccc(OC(F)(F)F)cc2)cc1)[C@H]1CCCO1 (stereo partly specified)", "nM", 0.61),
]

====

Parameter: pIC50. Scope: all listed entries.
# MEASURED_ON: Interstitial collagenase (Homo sapiens, UniProt P03956)
# Sequence (P03956 whole entry): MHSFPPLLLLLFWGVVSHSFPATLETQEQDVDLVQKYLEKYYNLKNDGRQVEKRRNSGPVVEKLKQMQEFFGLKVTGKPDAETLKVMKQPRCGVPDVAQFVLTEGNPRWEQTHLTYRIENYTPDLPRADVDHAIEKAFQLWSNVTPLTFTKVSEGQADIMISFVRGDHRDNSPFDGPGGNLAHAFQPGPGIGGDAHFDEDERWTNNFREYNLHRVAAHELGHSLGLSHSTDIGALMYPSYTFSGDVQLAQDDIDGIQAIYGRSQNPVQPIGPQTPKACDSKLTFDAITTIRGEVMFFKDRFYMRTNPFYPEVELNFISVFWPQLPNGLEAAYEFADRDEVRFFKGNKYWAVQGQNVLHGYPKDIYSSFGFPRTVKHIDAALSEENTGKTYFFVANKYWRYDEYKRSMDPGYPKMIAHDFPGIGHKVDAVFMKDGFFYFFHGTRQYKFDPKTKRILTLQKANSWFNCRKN
pIC50: −log10 of the molar value.

# COMPOUND, MEASURED_ON, pIC50
rows = [
    ("CC1(C)OC[C@H](CC(CS(=O)(=O)c2ccc(Oc3ccc(OC(F)(F)F)cc3)cc2)N(O)C=O)O1 (some centres not stated)", "Interstitial collagenase (Homo sapiens, UniProt P03956)", "< 4.30"),
    ("O=CN(O)C(Cc1ccc(C(=O)O)cc1)CS(=O)(=O)c1ccc(Oc2ccc(OC(F)(F)F)cc2)cc1 (configuration not stated)", "Interstitial collagenase (Homo sapiens, UniProt P03956)", "< 4.30"),
]

====

Parameter: IC50. Scope: all listed entries.
# ASSAY_DETAILS: Inhibition of GGPTase-1 (unknown origin)
# Set-up: species or system Homo sapiens
TEST_READOUT: IC50 (nM)

# COMPOUND, TEST_READOUT, ASSAY_RESULT
measured = [
    ("CC[C@@]1(c2cccc(Oc3cc([C@](C)(N)c4cncn4C)ccc3C#N)c2)CCCCN(C)C1=O", "IC50", 3.6),
    ("CCC1(c2cccc(Oc3cc(C(N)c4cncn4C)ccc3C#N)c2)CCCCN(C)C1=O (stereo not given)", "IC50", 8),
    ("CCC1(c2cccc(Oc3cc(C(C)(N)c4cncn4C)ccc3C#N)c2)CCCCN(C)C1=O (mixture of isomers)", "IC50", 5.1),
    ("N#Cc1ccc(Cn2ccnc2)cc1Oc1ccccc1", "IC50", 3700),
    ("N#Cc1ccc(Cn2ccnc2)cc1Oc1ccc(Cl)cc1Cl", "IC50", 280),
]
